tested target: T1, His-tagged human HtrA1 protease domain (human, UniProt Q92743 161-367)
T1 construct: His-tagged protease domain; also called huHtrA1-PD-His; huHtrA1-PD
T1 sequence (Q92743 other isoform, or with tags, fused parts or gaps limits assumed): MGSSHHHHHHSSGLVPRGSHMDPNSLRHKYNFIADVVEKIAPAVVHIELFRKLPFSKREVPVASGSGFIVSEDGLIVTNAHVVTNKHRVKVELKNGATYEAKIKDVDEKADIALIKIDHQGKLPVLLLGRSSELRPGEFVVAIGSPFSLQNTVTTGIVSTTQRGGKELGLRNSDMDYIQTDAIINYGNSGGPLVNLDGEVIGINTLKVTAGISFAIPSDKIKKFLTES
test method notes: SPR (BIACORE T200), huHtrA1-PD-His captured by anti-His, Fab injected
Please provide measured kon for the entries that follow.
Answers are plain numbers, in M⁻¹ s⁻¹.

// known answers, use as guide
binder	output unit	kon
h15H6.v2 variant LC2 (LC-N31H) Fab (Fab, V domains shown, Fab-Flag tag fusion from 293T cells) VH: EVQLVQSGAEVKKPGASVKVSCKASGYTFTDSEMHWVRQAPGQGLEWIGGVDPETDGAAYNQKFKGRATITRDTSTSTAYLELSSLRSEDTAVYYCTRGYDYDYALDYWGQGTLVTVSS VL: DIQMTQSPSSLSASVGDRVTITCRASSSVHFIHWYQQKPGKAPKPLISATSNLASGVPSRFSGSGSGTDFTLTISSLQPEDFATYYCQQWSSNPWTFGQGTKVEIK	M⁻¹ s⁻¹	228000
h15H6.v2 variant LC5 (LC-N53E) Fab (Fab, V domains shown, Fab-Flag tag fusion from 293T cells) VH: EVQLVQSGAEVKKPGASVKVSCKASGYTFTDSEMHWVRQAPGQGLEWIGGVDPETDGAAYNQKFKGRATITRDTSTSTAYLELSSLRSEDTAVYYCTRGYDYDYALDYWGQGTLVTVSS VL: DIQMTQSPSSLSASVGDRVTITCRASSSVNFIHWYQQKPGKAPKPLISATSELASGVPSRFSGSGSGTDFTLTISSLQPEDFATYYCQQWSSNPWTFGQGTKVEIK	M⁻¹ s⁻¹	441000

Form: binder = h15H6.v2 variant LC8 (LC-S92K) Fab (Fab, V domains shown, Fab-Flag tag fusion from 293T cells) VH: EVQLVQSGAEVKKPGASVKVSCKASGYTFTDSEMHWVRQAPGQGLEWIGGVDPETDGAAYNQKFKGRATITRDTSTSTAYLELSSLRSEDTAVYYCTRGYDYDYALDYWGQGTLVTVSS VL: DIQMTQSPSSLSASVGDRVTITCRASSSVNFIHWYQQKPGKAPKPLISATSNLASGVPSRFSGSGSGTDFTLTISSLQPEDFATYYCQQWKSNPWTFGQGTKVEIK ; kon = 343000
